# Test system: SK-MEL-5 melanoma
# run description: NCI-60 one-dose screen, 48 h
# measurement setup: 10 µM unless noted
About 83,000 compounds went through this panel and 20% of them were active in at least one assay; those are over-represented in the sample as a whole. The source made the active and inactive calls. How the source made its calls: active means growth percent below 10; inactive means the rest.
Labels: Yes = active, No = inactive

compound=C#CCOc1ccc(/C=N/Nc2nc(-c3ccc(Cl)cc3)cs2)cc1OC answer_label=Yes
compound="Cc1ccc([C@H]2C(C(=O)c3ccc(Cl)cc3)C3(N[C@@H]2c2ccccc2)C(=O)Nc2ccc(Br)cc23)cc1 (stereo not given in full)" answer_label=No
compound=CCN(CC)CCOc1ccc(Nc2ncc3cc(-c4ccc(O)c(C#N)c4)c(=O)n(C)c3n2)cc1 answer_label=No
compound=CN(C)CCCNC(=O)c1cc(NC(=O)c2cc(NC(=O)c3ccc(C#Cc4ccccc4)cc3)cn2C)cn1C answer_label=Yes
compound=COc1cc2oc(-c3cccc(C(=O)Nc4ccc(Cl)cc4)c3)cc(=O)c2c(OCCNC(=O)[C@H](CO)NC(=O)OC(C)(C)C)c1OC answer_label=Yes

---

compounds and their reported growth
# System: BT-549 breast
# run description: NCI-60 one-dose screen, 48 h (100 = growth as untreated, 0 = no growth, -100 = all killed)
# measurement setup: 10 µM unless noted
Compounds without any hit were thinned out: in the full panel of roughly 83,000, 20% have a hit.
measure name: growth (%)

compound="CN(C)c1nc(NCCNS(=O)(=O)c2ccc(C3=Nc4c(N)nc(N)nc4NC(c4ccccc4)C3)cc2)nc(Nc2ccc(F)cc2)n1 (centres undefined)" recorded_number=29.1
compound=COc1cc2oc(-c3cccc(C(=O)Nc4ccc(Cl)cc4)c3)cc(=O)c2c(OCCNC(=O)[C@H](CO)NC(=O)OC(C)(C)C)c1OC recorded_number=-52.3
compound=CC(C)CSc1nc(NCCc2c[nH]c3ccccc23)c(C#N)c(-c2ccccc2)n1 recorded_number=92.6
compound=CCN(CC)c1ccnc(CNCCSC(c2ccccc2)(c2ccccc2)c2ccc(C)cc2)c1 recorded_number=-91.9
compound=Cn1cc(-c2cc3nc(-c4cn(C)c5ncccc45)cc(N)n3n2)c2cc(Cl)ccc21 recorded_number=-94.6
compound=O=C(O)Cn1c(O)c(/C=C2/C=c3cc4c(cc3=NC2=O)OCCO4)sc1=S recorded_number=104
compound="CC1CN(c2oc(-c3ccc([N+](=O)[O-])cc3)nc2C#N)CC(C)O1 (centres undefined)" recorded_number=107
compound=CC(=O)Nc1ccc(C(=O)NC(=S)Nc2ccc(S(N)(=O)=O)cc2)cc1 recorded_number=94.4
compound="COc1cc2c(c(OC)c1OC)C(=O)CC(c1cccc(NC(=O)[C@@H](N)CC(C)C)c1)O2 (some centres undefined)" recorded_number=94.3

---

# Test system: M14 melanoma
# run description: NCI-60 one-dose screen, 48 h (100 = growth as untreated, 0 = no growth, -100 = all killed)
# measurement setup: 10 µM unless noted
Compounds without any hit were thinned out: in the full panel of roughly 83,000, 20% have a hit.
measure name: growth (%)

compound=NC(=S)Nc1cccc(NC(N)=S)c1 measure_name=growth unit_name=% recorded_number=125
compound=CCCSc1nc(NCCc2c[nH]c3ccccc23)c(C#N)c(-c2ccccc2)n1 measure_name=growth unit_name=% recorded_number=83.5
compound=Nc1nnc(-c2c[nH]c3ncc(Br)cc23)c(-c2c[nH]c3ccc(F)cc23)n1 measure_name=growth unit_name=% recorded_number=23.4
compound=CN1CCN(c2ccc(C(=O)/C=C/c3cc(C(F)(F)F)cc(C(F)(F)F)c3)cc2)CC1 measure_name=growth unit_name=% recorded_number=-97.4
compound=Cn1cc(-c2cc(N)n3nc(-c4cn(C)c5ccccc45)cc3n2)c2cc(Cl)ccc21 measure_name=growth unit_name=% recorded_number=-78.3
compound=Cc1ccc(S(=O)(=O)c2nc(S(=O)(=O)c3ccc(C)cc3)c(Cl)s2)cc1 measure_name=growth unit_name=% recorded_number=23.7
compound="C=C1CC[C@@H]2[C@]3(C)COC(c4cn(-c5ccccc5)nc4-c4cccc([N+](=O)[O-])c4)O[C@@H]3CC[C@@]2(C)[C@@H]1C/C=C1/C(=O)OC[C@H]1O (stereo partly drawn)" measure_name=growth unit_name=% recorded_number=-51.2
compound=Cn1cc(-c2cc(N)n3nc(-c4c[nH]c5ccccc45)cc3n2)c2cccnc21 measure_name=growth unit_name=% recorded_number=-48.1
compound=CC(C)c1sc(NC(=O)c2cc(NC(=O)c3cc(NC(=O)c4cscn4)cn3C)cn2C)nc1C(=O)NCCCN(C)C measure_name=growth unit_name=% recorded_number=45
compound=Nc1nnc(-c2c[nH]c3ccc(Br)cc23)c(-c2c[nH]c3ncc(Br)cc23)n1 measure_name=growth unit_name=% recorded_number=38.6
compound="CC1=C(C(=O)OCc2ccccc2)C(c2c(O)cc(O)cc2O)n2c(nc3ccccc32)N1 (stereo not drawn)" measure_name=growth unit_name=% recorded_number=41.7
compound=N/C(=N\c1nc2ccccc2s1)NC(=O)Nc1ccccc1Br measure_name=growth unit_name=% recorded_number=2.92
compound=N#Cc1c(-c2cccc3ccccc23)cc(-c2cccc(OCC(=O)O)c2)[nH]c1=O measure_name=growth unit_name=% recorded_number=93.6
compound="COc1c(F)ccc(C(=O)Nc2ccc3nc(NC(=O)C4CCCN(S(=O)(=O)c5ccc(C#N)cc5)C4)sc3c2)c1F (stereo not drawn)" measure_name=growth unit_name=% recorded_number=92.7
compound="Cc1ccc([C@H]2C(C(=O)c3ccc(Cl)cc3)C3(N[C@@H]2c2ccccc2)C(=O)Nc2ccccc23)cc1 (stereo partly drawn)" measure_name=growth unit_name=% recorded_number=28.7
compound=COc1ccc(/C=C2\C(=O)Nc3ccc(Cl)cc32)cc1OCc1ccccn1 measure_name=growth unit_name=% recorded_number=52.8
compound=Cn1cc(NC(=O)c2cc(NC(=O)c3ccc(/C=C/c4ccccc4)cc3)cn2C)cc1C(=O)NCCCN1CCOCC1 measure_name=growth unit_name=% recorded_number=-84
compound="COc1c(F)ccc(C(=O)Nc2ccc3nc(NC(=O)C4CCCN(S(=O)(=O)c5ccc(Br)s5)C4)sc3c2)c1F (stereo not drawn)" measure_name=growth unit_name=% recorded_number=89.7
